Ref: patent US9980948B2

target: Human AMPK α2β2γ1 (Homo sapiens, UniProt O43741+P54646); construct: The full length cDNAs of human AMPK β2 (NM_005399.3) and human AMPK α2 (NM_006252.3); The full length cDNAs of human AMPK β2 (NM_005399.3); the full length cDNA of human AMPK γ1 (NM_002733.3) had been inserted into pET28b(+); 6xHis (N); made in house; host or cells: Escherichia coli BL21 CodonPlus (DE3)-RTL (AMPK); BL21 Star (DE3) (CaMKKβ); assay: Test Example 2: evaluation of an activator for AMP-activated protein kinase (AMPK), human AMPK α2β2γ1 phosphorylated with CaMKK2, FL-Peptide 7 mobility shift; type: biochemical; settings: human AMPK α2β2γ1, 0.2 mM ATP final, 25° C., 2 hours
Sequence (P54646 whole entry): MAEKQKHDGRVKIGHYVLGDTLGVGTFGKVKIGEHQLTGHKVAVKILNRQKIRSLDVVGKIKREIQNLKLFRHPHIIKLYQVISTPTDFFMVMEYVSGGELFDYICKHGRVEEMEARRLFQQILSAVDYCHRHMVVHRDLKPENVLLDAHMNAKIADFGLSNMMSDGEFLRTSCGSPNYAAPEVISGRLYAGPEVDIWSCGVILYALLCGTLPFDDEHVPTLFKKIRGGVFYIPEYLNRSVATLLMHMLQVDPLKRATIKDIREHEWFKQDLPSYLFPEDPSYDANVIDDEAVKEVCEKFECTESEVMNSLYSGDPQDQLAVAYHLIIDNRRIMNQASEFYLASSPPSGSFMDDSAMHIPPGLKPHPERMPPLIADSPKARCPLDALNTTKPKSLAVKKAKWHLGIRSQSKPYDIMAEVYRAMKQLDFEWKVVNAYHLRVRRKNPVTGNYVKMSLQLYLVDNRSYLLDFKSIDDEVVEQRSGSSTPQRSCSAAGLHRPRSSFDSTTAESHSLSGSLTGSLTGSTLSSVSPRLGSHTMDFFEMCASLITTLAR
Sequence (O43741 whole entry): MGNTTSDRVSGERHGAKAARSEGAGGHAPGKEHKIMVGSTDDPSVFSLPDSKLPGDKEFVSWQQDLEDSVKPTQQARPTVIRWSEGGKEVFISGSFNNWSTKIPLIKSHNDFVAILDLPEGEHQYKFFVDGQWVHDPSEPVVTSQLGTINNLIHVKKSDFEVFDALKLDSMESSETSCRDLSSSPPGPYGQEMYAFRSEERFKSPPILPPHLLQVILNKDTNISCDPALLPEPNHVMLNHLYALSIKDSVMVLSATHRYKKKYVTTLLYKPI
Sequence (P54619 whole entry partner): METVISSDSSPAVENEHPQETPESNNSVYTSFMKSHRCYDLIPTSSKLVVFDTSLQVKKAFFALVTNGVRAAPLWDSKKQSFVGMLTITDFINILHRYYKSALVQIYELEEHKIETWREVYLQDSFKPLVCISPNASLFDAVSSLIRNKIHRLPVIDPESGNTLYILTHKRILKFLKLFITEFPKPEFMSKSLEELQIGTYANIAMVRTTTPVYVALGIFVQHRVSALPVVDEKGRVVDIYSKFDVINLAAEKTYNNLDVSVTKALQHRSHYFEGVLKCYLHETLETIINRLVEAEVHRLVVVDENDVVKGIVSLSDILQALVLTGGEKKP
EC150 (compound concentration showing 150% relative to the control (100%)) strictly under 50 nM means Met; at 50 nM or over means Not met.

Some solved entries appear below for comparison.
>  <compound>
Cn1ccc2cc(-c3nc4c(C#N)c(O[C@@H]5CO[C@H]6[C@@H]5OC[C@H]6O)[nH]c4cc3Cl)ccc21

>  <assayed target>
Human AMPK α2β2γ1 (Homo sapiens, UniProt O43741+P54646)

>  <cat>
Not met

$$$$
>  <compound>
COc1cc(F)c(-c2nc3cc(O[C@@H]4CO[C@H]5[C@@H]4OC[C@H]5O)[nH]c3cc2F)c(F)c1

>  <assayed target>
Human AMPK α2β2γ1 (Homo sapiens, UniProt O43741+P54646)

>  <cat>
Not met

$$$$

As a next step, examine the compound that follows.
EC150 (compound concentration showing 150% relative to the control (100%)) under 50 nM? Item: N#Cc1cc2[nH]c(O[C@@H]3CO[C@H]4[C@@H]3OC[C@H]4O)cc2nc1NC1CCc2cc(F)cc(F)c21 (stereo partly shown)
Met

====

molecular target: Human AMPK α2β2γ1 (Homo sapiens, UniProt O43741+P54646); construct: The full length cDNAs of human AMPK β2 (NM_005399.3) and human AMPK α2 (NM_006252.3); The full length cDNAs of human AMPK β2 (NM_005399.3); the full length cDNA of human AMPK γ1 (NM_002733.3) had been inserted into pET28b(+); 6xHis (N); made in house; host or cells: Escherichia coli BL21 CodonPlus (DE3)-RTL (AMPK); BL21 Star (DE3) (CaMKKβ); test: Test Example 2: evaluation of an activator for AMP-activated protein kinase (AMPK), human AMPK α2β2γ1 phosphorylated with CaMKK2, FL-Peptide 7 mobility shift; assay type: biochemical; conditions: human AMPK α2β2γ1, 0.2 mM ATP final, 25° C., 2 hours
Please respond with condition met when measured EC150 (compound concentration showing 150% relative to the control (100%)) is strictly beneath 6 nM, and with condition not met in all other cases.

For O[C@@H]1CO[C@H]2[C@@H]1OC[C@H]2Oc1[nH]c2cc(C(F)(F)F)c(-c3ccc(N4CCOCC4)cc3)nc2c1F , is the recorded EC150 (compound concentration showing 150% relative to the control (100%)) below the cut-off of 6 nM?
condition not met

====

molecular target: Human AMPK α2β2γ1 (Homo sapiens, UniProt O43741+P54646); construct: The full length cDNAs of human AMPK β2 (NM_005399.3) and human AMPK α2 (NM_006252.3); The full length cDNAs of human AMPK β2 (NM_005399.3); the full length cDNA of human AMPK γ1 (NM_002733.3) had been inserted into pET28b(+); 6xHis (N); made in house; host or cells: Escherichia coli BL21 CodonPlus (DE3)-RTL (AMPK); BL21 Star (DE3) (CaMKKβ); experiment: Test Example 2: evaluation of an activator for AMP-activated protein kinase (AMPK), human AMPK α2β2γ1 phosphorylated with CaMKK2, FL-Peptide 7 mobility shift; assay type: biochemical; details: human AMPK α2β2γ1, 0.2 mM ATP final, 25° C., 2 hours
Label False if EC150 (compound concentration showing 150% relative to the control (100%)) falls below 5 nM; label True in every other case.

Example entries and their recorded answers appear below.
>  <compound>
CC(=O)Nc1nc(-c2ccc(-c3nc4cc(O[C@@H]5CO[C@H]6[C@@H]5OC[C@H]6O)[nH]c4cc3F)cc2)cs1 [Compound I-3-10]

>  <cat>
True

$$$$
>  <compound>
O[C@@H]1CO[C@H]2[C@@H]1OC[C@H]2Oc1cc2nc(-c3ccsc3)c(F)cc2[nH]1 [Compound I-3-24]

>  <cat>
True

$$$$
>  <compound>
CN=S(C)(=O)c1ccc(-c2ccc(-c3nc4cc(O[C@@H]5CO[C@H]6[C@@H]5OC[C@H]6O)[nH]c4cc3F)cc2)cc1 (stereo partly drawn) [Compound I-4-36]

>  <cat>
False

$$$$
>  <compound>
N#Cc1cc2[nH]c(O[C@@H]3CO[C@H]4[C@@H]3OC[C@H]4O)cc2nc1-c1ccc(C2=CCOCC2)cc1 [Compound I-2-19]

>  <cat>
False

$$$$

Now look at this entry.
Does the reported EC150 (compound concentration showing 150% relative to the control (100%)) for O[C@@H]1CO[C@H]2[C@@H]1OC[C@H]2Oc1[nH]c2cc(Cl)c(-c3ccc(C4(O)CCC4)cc3)nc2c1Cl [Compound I-1-62] fall at or above the 5 nM mark?
True
